B1: ZNF193 (parent)
chain: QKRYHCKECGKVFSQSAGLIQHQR

Variants of: B1
Test: protein stability index of a GFP-peptide fusion (GPS, HEK-293T) (PSI 1-6); higher = more stable;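 also: lentivirally expressed fusions sorted by FACS into six bins by GFP to DsRed ratio, PSI derived from sequencing read proportions per bin multiplied by bin number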
Settings: c terminus: a fixed tail appended
I'd appreciate it if you could supply protein stability index values for the items below.
API doc: respond with a numeric literal and nothing else, no unit.

In: Output measured protein stability index for this item: `K2W`
Out: 2.17

In: Output measured protein stability index for this item: `C9T`
Out: 3.27

In: Output measured protein stability index for this item: `Q21L`
Out: 2.57

In: Output measured protein stability index for this item: `E8L`
Out: 2.75

In: Output measured protein stability index for this item: `Y4L`
Out: 2.4

In: Output measured protein stability index for this item: `Q21E`
Out: 3.7

In: Output measured protein stability index for this item: `K11G`
Out: 1.83

In: Output measured protein stability index for this item: `H5V`
Out: 3.95

In: Output measured protein stability index for this item: `Q1C`
Out: 2.42

In: Output measured protein stability index for this item: `R3H`
Out: 2.92

In: Output measured protein stability index for this item: `Q1W`
Out: 1.9
